test-protocol: Inhibition of HCV NS3 protease by FRET assay
Set-up: species or system Hepacivirus hominis
measurement-label: Ki

These recorded examples may help you get a feel for the data.
COc1ccc2c(O[C@@H]3C[C@@H](C(=O)Nc4ccccc4CC(=O)O)N(C(=O)[C@@H](NC(=O)OC(C)(C)C)C(C)(C)C)C3)cc(-c3ccccc3)nc2c1    17000 nM
COc1ccc2c(O[C@@H]3C[C@@H](C(=O)Nc4ccccc4C(=O)NS(=O)(=O)c4cccs4)N(C(=O)[C@@H](NC(=O)OC(C)(C)C)C(C)(C)C)C3)cc(-c3ccccc3)nc2c1    920 nM
COc1ccc2c(O[C@@H]3C[C@@H](C(=O)Nc4cccc(C(=O)NS(=O)(=O)c5ccccc5)c4)N(C(=O)[C@@H](NC(=O)OC(C)(C)C)C(C)(C)C)C3)cc(-c3ccccc3)nc2c1    780 nM
CC(C)(C)NC(=O)N[C@H](C(=O)N1C[C@H]2[C@@H]([C@H]1C(=O)NC(CC1CCC1)C(=O)C(N)=O)C2(C)C)C(C)(C)C (some centres not stated)    14 nM
COc1ccc2c(O[C@@H]3C[C@@H](C(=O)Nc4cc(C(F)(F)F)ccc4C(=O)NS(=O)(=O)c4ccccc4)N(C(=O)[C@@H](NC(=O)OC(C)(C)C)C(C)(C)C)C3)cc(-c3ccccc3)nc2c1    350 nM

Items follow; give Ki for each.
1. COc1ccc2c(O[C@@H]3C[C@H]4C(=O)N[C@]5(C(=O)O)C[C@H]5/C=C\CCCCC[C@H](NC(=O)OC5CCCC5)C(=O)N4C3)cc(-c3csc(NC(C)C)n3)nc2c1
2. COc1ccc2c(O[C@@H]3C[C@@H](C(=O)Nc4ccccc4C(=O)NS(=O)(=O)Cc4ccccc4)N(C(=O)[C@@H](NC(=O)OC(C)(C)C)C(C)(C)C)C3)cc(-c3ccccc3)nc2c1
3. COc1ccc2c(O[C@@H]3C[C@@H](C(=O)Nc4ccccc4C(=O)NS(C)(=O)=O)N(C(=O)[C@@H](NC(=O)OC(C)(C)C)C(C)(C)C)C3)cc(-c3ccccc3)nc2c1
4. COc1ccc(S(=O)(=O)NC(=O)c2ccccc2NC(=O)[C@@H]2C[C@@H](Oc3cc(-c4ccccc4)nc4cc(OC)ccc34)CN2C(=O)[C@@H](NC(=O)OC(C)(C)C)C(C)(C)C)cc1

Solution:
["0.66 nM", "610 nM", "5900 nM", "1200 nM"]

Items follow; give Ki for each.
1. CCC[C@H](NC(=O)[C@@H]1[C@H]2CCC[C@H]2CN1C(=O)[C@@H](NC(=O)[C@@H](NC(=O)c1cnccn1)C1CCCCC1)C(C)(C)C)C(=O)C(=O)NC1CC1
2. COc1ccc2c(O[C@@H]3C[C@@H](C(=O)Nc4cccc(C(=O)O)c4)N(C(=O)[C@@H](NC(=O)OC(C)(C)C)C(C)(C)C)C3)cc(-c3ccccc3)nc2c1
3. COc1ccc2c(O[C@@H]3C[C@@H](C(=O)Nc4ccccc4C(=O)NS(=O)(=O)c4ccc(C(F)(F)F)cc4)N(C(=O)[C@@H](NC(=O)OC(C)(C)C)C(C)(C)C)C3)cc(-c3ccccc3)nc2c1
4. COc1ccc2c(O[C@@H]3C[C@@H](C(=O)Nc4ccccc4Br)N(C(=O)[C@@H](NC(=O)OC(C)(C)C)C(C)(C)C)C3)cc(-c3ccccc3)nc2c1

Solution:
1. 39 nM
2. 6800 nM
3. 310 nM
4. 3900 nM

Items follow; give Ki for each.
1. COc1ccc2c(O[C@@H]3C[C@@H](C(=O)Nc4ccccc4C(=O)NS(=O)(=O)c4ccccc4)N(C(=O)[C@@H](NC(=O)OC(C)(C)C)C(C)(C)C)C3)cc(-c3ccccc3)nc2c1
2. COc1ccc2c(O[C@@H]3C[C@@H](C(=O)Nc4cccc(Br)c4)N(C(=O)[C@@H](NC(=O)OC(C)(C)C)C(C)(C)C)C3)cc(-c3ccccc3)nc2c1
3. COc1ccc2c(O[C@@H]3C[C@@H](C(=O)Nc4c(C)cccc4C(=O)NS(=O)(=O)c4ccccc4)N(C(=O)[C@@H](NC(=O)OC(C)(C)C)C(C)(C)C)C3)cc(-c3ccccc3)nc2c1
4. COc1ccc2c(O[C@@H]3C[C@@H](C(=O)Nc4ccc(Br)cc4)N(C(=O)[C@@H](NC(=O)OC(C)(C)C)C(C)(C)C)C3)cc(-c3ccccc3)nc2c1
5. COc1ccc2c(O[C@@H]3C[C@@H](C(=O)O)N(C(=O)[C@@H](NC(=O)OC(C)(C)C)C(C)(C)C)C3)cc(-c3ccccc3)nc2c1
6. COc1ccc2c(O[C@@H]3C[C@@H](C(=O)Nc4ccccc4C(=O)NS(=O)(=O)C4CC4)N(C(=O)[C@@H](NC(=O)OC(C)(C)C)C(C)(C)C)C3)cc(-c3ccccc3)nc2c1
7. COc1ccc2c(O[C@@H]3C[C@@H](C(=O)Nc4ccc(C(=O)O)cc4)N(C(=O)[C@@H](NC(=O)OC(C)(C)C)C(C)(C)C)C3)cc(-c3ccccc3)nc2c1

Solution:
1: 830 nM; 2: 1400 nM; 3: 3200 nM; 4: 1800 nM; 5: 66000 nM; 6: 2000 nM; 7: 12000 nM

Items follow; give Ki for each.
1. COc1ccc2c(O[C@@H]3C[C@@H](C(=O)Nc4ccccc4C(=O)O)N(C(=O)[C@@H](NC(=O)OC(C)(C)C)C(C)(C)C)C3)cc(-c3ccccc3)nc2c1
2. COc1ccc2c(O[C@@H]3C[C@@H](C(=O)Nc4ccc(C(=O)NS(=O)(=O)c5ccccc5)cc4)N(C(=O)[C@@H](NC(=O)OC(C)(C)C)C(C)(C)C)C3)cc(-c3ccccc3)nc2c1

Solution:
5000 nM
1100 nM
